- Test Description: Quantitative High-Throughput drug screen in 47 multiple myeloma cell lines against the NCATS MIPE library collection: MM1S_ATCC cell viability assay (AID 1918980); also: potency is read from the fitted curve at half-maximal effect; nearly all actives have a fitted effect of over 45% in size
- Experimental Setup: MM1S myeloma viability, CellTiter-Glo ATP luminescence, 48 h; series mostly up to 45.8 µM
Inconclusive results are not listed. The source made the active and inactive calls. Calls follow the shape of the dose curve; as a rule, active = well fitted cell-killing curve with a large enough effect; inconclusive = small, poorly fitted or top-dose-only effect, or effect the other way; inactive = no such curve, though single readings can be large or run the other way.
Parameter Measured: Potency

// query Determine from records and report Potency for COc1ccc(C(=O)CC2(O)C(=O)Nc3c(Cl)ccc(Cl)c32)cc1 (stereo unspecified)
// result 18.7 µM (active)

// query Determine from records and report Potency for COc1cc(C)c(Sc2cnc(NC(=O)c3ccc(CNC(C)C(C)C)cc3)s2)cc1C(=O)N1CCN(C(C)=O)CC1 (stereo unspecified)
// result 16.6 µM (active)

// query Determine from records and report Potency for CN(C)CC=CC(=O)Nc1cc2c(Nc3ccc(F)c(Cl)c3)ncnc2cc1O[C@H]1CCOC1
// result 5.9 µM (active)

// query Determine from records and report Potency for Cn1c(=O)n(-c2ccc(C(C)(C)C#N)cc2)c2c3cc(-c4cnc5ccccc5c4)ccc3ncc21
// result 0.296 µM (active)

// query Determine from records and report Potency for O=C(O)Cn1nnc(-c2cc(N3CCC(Oc4cc(F)ccc4Br)CC3)no2)n1
// result 8.33 µM (active)

// query Determine from records and report Potency for Cc1[nH]c2ccccc2c1CCNCc1ccc(C=CC(=O)NO)cc1
// result 0.0743 µM (active)

// query Determine from records and report Potency for CCS(=O)(=O)c1cccc(-c2cc(C(=O)NC3CCN(C)CC3)c(C)c3[nH]c4ncc(C)cc4c23)c1
// result 1.66 µM (active)

// query Determine from records and report Potency for CC1(C)OC2=C(C(=O)c3ccccc3C2=O)[C@H](NCc2ccccc2)[C@H]1O
// result 2.09 µM (active)

// query Determine from records and report Potency for Cc1ccc(C(=O)Nc2ccc(CN3CCN(C)CC3)c(C(F)(F)F)c2)cc1C#Cc1cnc2cccnn12
// result 4.69 µM (active)

// query Determine from records and report Potency for CNC(=O)c1nn(C)c2c1C(C)(C)Cc1cnc(Nc3ccc(N4CCN(C)CC4)cc3)nc1-2
// result 1.66 µM (active)

// query Determine from records and report Potency for COc1cccc2c(NCc3ccccc3)nc(-n3c(N)nc4ccccc43)nc12
// result 5.26 µM (active)

// query Determine from records and report Potency for COc1cc2c(Oc3ccc(NC(=O)C4(C(=O)Nc5ccc(F)cc5)CC4)cc3F)ccnc2cc1OCCCN1CCOCC1
// result 16.6 µM (active)
